System: 186277-243-T-J2-PDC complex spheroids, viability
EXPERIMENT DESCRIPTION: Anticancer human tumor 186277-243-T-J2-PDC patient-derived colon adenocarcinoma cell line growth inhibition [RAS]
SETUP CONDITIONS: curve of first compound; second compound 0.1 µM
A collection of molecules and their measured pIC50
Remember, pIC50 is on a log scale: it is -log10 of the molar concentration.

Observe how each entry below is paired with its result.
{"MOLECULE": "CC1(C)CCC(Nc2ncc(C(F)(F)F)c(-c3c[nH]c4c(P(C)(C)=O)c(C#N)ccc34)n2)CN1 (stereo not drawn) + C#Cc1c(F)ccc2cc(O)cc(-c3ncc4c(N5CC6CCC(C5)N6)nc(OCC56CCCN5CC(F)C6)nc4c3F)c12", "EXPERIMENTAL SYSTEM": "186277-243-T-J2-PDC complex spheroids, viability", "pIC50": 7.92}
{"MOLECULE": "CC(C)n1nc(-c2ccc3oc(N)nc3c2)c2c(N)ncnc21 + C=CC(=O)N1CCN(c2nc(OCC3CCCN3C)nc3c(F)c(-c4nc(N)cc(C)c4C(F)(F)F)c(Cl)cc23)C(C)C1", "EXPERIMENTAL SYSTEM": "186277-243-T-J2-PDC complex spheroids, viability", "pIC50": 7.01}
{"MOLECULE": "C[C@@H](NC(=O)c1ncnc(N)c1Cl)c1ncc(C(=O)Nc2cc(C(F)(F)F)c(Cl)cn2)s1 + C#Cc1c(F)ccc2cc(O)cc(-c3ncc4c(N5CC6CCC(C5)N6)nc(OCC56CCCN5CC(F)C6)nc4c3F)c12", "EXPERIMENTAL SYSTEM": "186277-243-T-J2-PDC complex spheroids, viability", "pIC50": 5.38}
{"MOLECULE": "C=CC(=O)Nc1cc(Nc2nccc(-c3cn(C)c4ccccc34)n2)c(OC)cc1N(C)CCN(C)C + C#Cc1c(F)ccc2cc(O)cc(-c3ncc4c(N5CC6CCC(C5)N6)nc(OCC56CCCN5CC(F)C6)nc4c3F)c12", "EXPERIMENTAL SYSTEM": "186277-243-T-J2-PDC complex spheroids, viability", "pIC50": 7.46}

Then this molecule:
pIC50 recorded for this molecule, CC1(O)CCCC1n1c(=O)c(C(F)F)cc2cnc(NC3CCN(S(C)(=O)=O)CC3)nc21 (stereo not drawn) + C=CC(=O)N1CCN(c2nc(OCC3CCCN3C)nc3c(F)c(-c4nc(N)cc(C)c4C(F)(F)F)c(Cl)cc23)C(C)C1 , is 5.29

---

System: 186277-243-T-J2-PDC complex spheroids, viability
EXPERIMENT DESCRIPTION: Anticancer human tumor 186277-243-T-J2-PDC cell line growth inhibition [RAS];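 further: spheroids exposed to compounds for 7 days before viability read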
SETUP CONDITIONS: second compound 0.316 µM; first compound 0.0316 µM; stronger effect = lower value
Each record is given Satisfied if its reported viability, T/C is strictly below 30%. Records at or above 30% are given Not satisfied.

{"MOLECULE": "NC1c2ccccc2OC12CCN(c1cnc3c(N4CCCc5ncccc54)n[nH]c3n1)CC2 (stereo not given) + C=CC(=O)N1CCN(c2nc(OCC3CCCN3C)nc3c(F)c(-c4nc(N)cc(C)c4C(F)(F)F)c(Cl)cc23)C(C)C1", "CLASS ASSIGNMENT": "Not satisfied"}
{"MOLECULE": "CC(Nc1ccc2c(c1)OCCn1cc(N3C(=O)OCC3C(F)F)nc1-2)C(N)=O (stereo not given) + C=CC(=O)N1CCN(c2nc(OCC3CCCN3C)nc3c(F)c(-c4nc(N)cc(C)c4C(F)(F)F)c(Cl)cc23)C(C)C1", "CLASS ASSIGNMENT": "Not satisfied"}
{"MOLECULE": "Nc1ccn(C2OC(CO)C(O)C2(F)F)c(=O)n1 (stereo not given) + C=CC(=O)N1CCN(c2nc(OCC3CCCN3C)nc3c(F)c(-c4nc(N)cc(C)c4C(F)(F)F)c(Cl)cc23)C(C)C1", "CLASS ASSIGNMENT": "Satisfied"}
{"MOLECULE": "CC(C)NCC(C(=O)N1CCN(c2ncnc3c2C(C)CC3O)CC1)c1ccc(Cl)cc1 (stereo not given) + C#Cc1c(F)ccc2cc(O)cc(-c3ncc4c(N5CC6CCC(C5)N6)nc(OCC56CCCN5CC(F)C6)nc4c3F)c12", "CLASS ASSIGNMENT": "Satisfied"}

Note: attention shifts to another entry.
Q: For CC(C)NCC(C(=O)N1CCN(c2ncnc3c2C(C)CC3O)CC1)c1ccc(Cl)cc1 (stereo not given) + C=CC(=O)N1CCN(c2nc(OCC3CCCN3C)nc3c(F)c(-c4nc(N)cc(C)c4C(F)(F)F)c(Cl)cc23)C(C)C1 , is the recorded viability, T/C below the cut-off of 30%?
A: Not satisfied
